Test: NCI Yeast Anticancer Drug Screen. Data for the mec2-1 strain (AID 157)
Details: S. cerevisiae mec2-1 strain, at 50.0 µM, active compounds read high
Experimental: Growth inhibition of yeast strains with defined genetic alterations is measured as a screen for potential anti-cancer activity. Selected strains with alterations in DNA damage repair or cell cycle control were exposed to compounds and growth inhibition was measured relative to vehicle treated controls. The strain used in this assay is mec2-1
The panel holds about 79,000 compounds, 15% with a hit somewhere; the sample as a whole holds those more often.
Parameter growth inhibition: see the listing below.
Measurement label: growth inhibition (%)

[[record]]
molecule = "COc1cc2cc(c1Cl)N(C)C(=O)CC(OC(=O)C(C)C)C1(C)OC1C(C)C1CC(O)(NC(=O)O1)C(OC)/C=C/C=C(C)C2 (stereo not given)"
measurement_label = "growth inhibition"
measurement = -9.9

[[record]]
molecule = "CC1CCCCN1 (stereo not given)"
measurement_label = "growth inhibition"
measurement = -1

[[record]]
molecule = "CCOP(=O)(OCC)/C(C#N)=C/c1ccccc1"
measurement_label = "growth inhibition"
measurement = -23.1

[[record]]
molecule = "O=c1c(O)c(-c2ccccc2)oc2ccccc12.[Zr]"
measurement_label = "growth inhibition"
measurement = -6.65

[[record]]
molecule = "O=c1[nH]cc(N=Cc2ccccc2F)c(=O)[nH]1.[Cl][Pt][Cl]"
measurement_label = "growth inhibition"
measurement = 6.15

[[record]]
molecule = "[NH2-].[NH2-].[NH2-].[NH2-].[NH2-].[NH2-].[Ru+6]"
measurement_label = "growth inhibition"
measurement = -12.1

[[record]]
molecule = "CCN=C=NCCCN(C)C"
measurement_label = "growth inhibition"
measurement = -8.8

[[record]]
molecule = "CN(C)CCNC(=O)c1cccc(COC(=O)N(CCCl)CCCl)c1[N+](=O)[O-]"
measurement_label = "growth inhibition"
measurement = -2.4

[[record]]
molecule = "CCP(c1ccccc1)c1ccccc1"
measurement_label = "growth inhibition"
measurement = 12.4

[[record]]
molecule = "Cc1cc(S(=O)(=O)F)ccc1O"
measurement_label = "growth inhibition"
measurement = -6.2

[[record]]
molecule = "CCOC(=O)C(N)C[S][Sn]([CH3])([CH3])[Cl] (stereo not given)"
measurement_label = "growth inhibition"
measurement = 21.8

[[record]]
molecule = "CC(=O)[CH-]C(C)=O.F[P-](F)(F)(F)(F)F.[Co+3].[NH-]CC[NH-].[NH-]CC[NH-]"
measurement_label = "growth inhibition"
measurement = -15.4

[[record]]
molecule = "CC(=O)OC1CCC2(C)C(=CCC3C4C/C(=C\\N5CCCC5)C(=O)C4(C)CCC32)C1 (stereo not given)"
measurement_label = "growth inhibition"
measurement = 99

[[record]]
molecule = "CCN1C(=O)CC(=O)N(CC)C1=S"
measurement_label = "growth inhibition"
measurement = -12.4

[[record]]
molecule = "C#[C][Sn]([CH2]CCC)([CH2]CCC)[CH2]CCC"
measurement_label = "growth inhibition"
measurement = 99.5


* * *

Test: NCI Yeast Anticancer Drug Screen. Data for the cln2 rad14 strain (AID 165);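 note: 0% = growth equal to vehicle treated cultures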
Conditions: S. cerevisiae cln2 rad14 strain, at 50.0 µM
Compounds without any hit were thinned out: in the full panel of roughly 79,000, 15% have a hit. Activity calls are given as the source filed them. Cut-off read from the data, not from the text of the source: active = growth inhibition above about 70%; inactive = the rest.
Outcome codes: t for active, f for inactive

[[record]]
compound = "CCCCCC(=O)C[n+]1ccccc1 (tested in a mixture with another compound)"
class_label = "f"

[[record]]
compound = "CCC1([N+](=O)[O-])COP(=O)(NCc2ccncc2)OC1 (stereo not given)"
class_label = "f"

[[record]]
compound = "BrCC[N+]12CCCN1CCC2"
class_label = "f"

[[record]]
compound = "CC(C)(C)C(=O)CP(=O)(O)O (tested in a mixture with another compound)"
class_label = "f"

[[record]]
compound = "CCOP(=S)(NCCCOC)OCC"
class_label = "f"

[[record]]
compound = "C[C@]12CCc3nonc3C1CC[C@@H]1C2CC[C@@]2(C)C1CC[C@@H]2O (stereo not given in full)"
class_label = "f"

[[record]]
compound = "CCCC[S][Sn]([CH2]CCC)([CH2]CCC)[S]CCCC"
class_label = "t"

[[record]]
compound = "COc1ccc2[se]c(C)nc2c1"
class_label = "f"

[[record]]
compound = "CC(Cc1ccc(Cl)cc1Cl)NO (stereo not given)"
class_label = "f"

[[record]]
compound = "C[As+](c1ccccc1)(c1ccccc1)c1cccc2ccccc12"
class_label = "f"

[[record]]
compound = "CC(=O)OC(c1ccccc1Cl)C(Cl)(Cl)Cl (stereo not given)"
class_label = "f"

[[record]]
compound = "COc1ccc(CCl)cc1CCl"
class_label = "f"

[[record]]
compound = "N#CN=C(N)NC#N"
class_label = "f"

[[record]]
compound = "C1NCC2CNCC1O2"
class_label = "f"

[[record]]
compound = "N#CC(C#N)=Cc1ccc(C=C(C#N)C#N)cc1"
class_label = "f"

[[record]]
compound = "CCOP(=O)(OCC)/C(C#N)=C/c1cccc(OC)c1"
class_label = "f"

[[record]]
compound = "CCOC(=O)/C=C/CP(=O)(OCC)OCC"
class_label = "f"

[[record]]
compound = "O=C(c1ccccc1)P(C(=O)c1ccccc1)C(=O)c1ccccc1"
class_label = "f"

[[record]]
compound = "C=C[CH2][Sn]([Br])([c]1ccccc1)[c]1ccccc1"
class_label = "t"

[[record]]
compound = "NC1Cc2cc(O)ccc2C1=O (stereo not given)"
class_label = "f"

[[record]]
compound = "Nc1ccc(P(=O)(O)O)cc1"
class_label = "f"

[[record]]
compound = "CC(C)(C)c1cc(C=C(C#N)C#N)cc(C(C)(C)C)c1O"
class_label = "f"

[[record]]
compound = "c1cc(C2N3CCCN2CC3)ccn1 (stereo not given)"
class_label = "f"

[[record]]
compound = "CO[C@H](C)[C@](O)(C(=O)OCC1=CC[N+]2([O-])CC[C@H](O)[C@@H]12)C(C)C (stereo not given in full)"
class_label = "f"

[[record]]
compound = "NC1=NC(N)=N1"
class_label = "f"

